# Tested on: 786-0 renal
# experiment.description: NCI tumour cell line growth inhibition, 48 h

>  <molecule>
Cc1ccc2cc3c(cc(C)c4ccccc43)c3c2c1CC3

>  <GI50>
> 100 µM

$$$$
>  <molecule>
CC(C)OP(=O)(OC(C)C)c1ncc(-c2ccc(C(F)(F)F)cc2)c(NC2CCCCCC2)n1

>  <GI50>
> 10 µM

$$$$
>  <molecule>
COc1cc2c(cc1O)CC[C@@H]1[C@@H]2CC[C@]2(C)[C@@H](OCCCN(C)C)CC[C@@H]12

>  <GI50>
0.0905 µM

$$$$
>  <molecule>
C/C=C/C1=CN2C(=O)c3cc(OC4OC(C)C(NC)C(C)(O)C4O)c(C)cc3N=C[C@@H]2C1 (some centres undefined)

>  <GI50>
0.0226 µM

$$$$
>  <molecule>
C=CC(C)c1cccc(C=O)c1O (centres undefined)

>  <GI50>
97.1 µM

$$$$
>  <molecule>
ClC(Cl)c1nc(-c2ccccc2)n2nc(-c3ccccc3)cc2n1

>  <GI50>
8.7 µM

$$$$
>  <molecule>
N#Cc1cnc(=O)n(C2CC(O)C(CO)O2)c1 (centres undefined)

>  <GI50>
> 100 µM

$$$$
>  <molecule>
S=c1ssnc1-c1ccccn1

>  <GI50>
2.54 µM

$$$$
>  <molecule>
CC(C)N(Cc1c(F)cccc1F)c1ccc(CO)c(Cl)c1

>  <GI50>
13.7 µM

$$$$
